- testedTarget: Glycogen synthase kinase-3 beta (Homo sapiens)
- experimentNotes: concentration-response blocking of human GSK3B – biochemical, luminescence, cell-free homogeneous, retest, dose response (AID 434954)
measure: EC50

compound: CC1CC(=O)Nc2ccc([N+](=O)[O-])cc2N1C (stereo unspecified)
testedTarget: Glycogen synthase kinase-3 beta (Homo sapiens)
result: > 300 µM
//
compound: O=C(CCC1COc2ccccc2O1)NCC1COc2ccccc2O1 (stereo unspecified)
testedTarget: Glycogen synthase kinase-3 beta (Homo sapiens)
result: > 300 µM
//
compound: c1ccc(CSc2nnc(-c3ccncc3)o2)cc1
testedTarget: Glycogen synthase kinase-3 beta (Homo sapiens)
result: 5.14 µM
//
compound: CCOC(=O)c1nnn(-c2nc(OC)nc(N3CCCC3)n2)c1-c1ccccc1
testedTarget: Glycogen synthase kinase-3 beta (Homo sapiens)
result: > 300 µM
//
compound: CC1(C)CC(=O)C2C(=Nc3cc4c(cc3C2c2ccc(F)cc2)OCO4)C1 (stereo unspecified)
testedTarget: Glycogen synthase kinase-3 beta (Homo sapiens)
result: > 300 µM

-- ask Entry O=C(CN1CCN(S(=O)(=O)c2ccccc2)CC1)Nc1ccc([N+](=O)[O-])cc1 , system Glycogen synthase kinase-3 beta (Homo sapiens): what EC50 was measured?
-- reply > 300 µM

-- ask Entry Nc1nc(NCCO)nc(NCC2CCCO2)c1[N+](=O)[O-] (stereo unspecified) , system Glycogen synthase kinase-3 beta (Homo sapiens): what EC50 was measured?
-- reply 9.74 µM

-- ask Entry COC(=O)c1nnn(-c2nonc2N)c1CSc1ccc(Cl)cc1 , system Glycogen synthase kinase-3 beta (Homo sapiens): what EC50 was measured?
-- reply 15.9 µM

-- ask Entry Nc1nonc1-n1nnc(C(=O)NN=Cc2ccc(Cl)cc2Cl)c1CN1CCCCC1 , system Glycogen synthase kinase-3 beta (Homo sapiens): what EC50 was measured?
-- reply > 300 µM

-- ask Entry CC(=O)Oc1cc(C)cc2oc(=O)cc(-c3ccccc3)c12 , system Glycogen synthase kinase-3 beta (Homo sapiens): what EC50 was measured?
-- reply > 300 µM

-- ask Entry O=C(Nc1cccnc1)Nc1ccccn1 , system Glycogen synthase kinase-3 beta (Homo sapiens): what EC50 was measured?
-- reply > 300 µM

-- ask Entry COc1ccc2nc3c(cc2c1)c(NC(=O)c1cccs1)nn3CC(C)C , system Glycogen synthase kinase-3 beta (Homo sapiens): what EC50 was measured?
-- reply 0.0951 µM

-- ask Entry Cc1nn(CC(=O)NCCCN2CCCCC2)c(=O)c2cc(-c3ccccc3)nn12 , system Glycogen synthase kinase-3 beta (Homo sapiens): what EC50 was measured?
-- reply > 300 µM

-- ask Entry Cc1[nH]nc2c1C(c1ccc(O)cc1)C1C(=O)CC(C)(C)CC1=N2 (stereo unspecified) , system Glycogen synthase kinase-3 beta (Homo sapiens): what EC50 was measured?
-- reply 2.06 µM

-- ask Entry CCCCc1cc(=O)oc2cc(C)cc(OCc3nn[nH]n3)c12 , system Glycogen synthase kinase-3 beta (Homo sapiens): what EC50 was measured?
-- reply > 300 µM

-- ask Entry COc1ccc(-c2nn(-c3ccccc3)cc2C=NNC(=S)NC(C)C)cc1OC , system Glycogen synthase kinase-3 beta (Homo sapiens): what EC50 was measured?
-- reply > 300 µM

-- ask Entry CCN1CCN(c2cc(C)c3cc(NC(=O)c4cc(OC)cc(OC)c4)ccc3n2)CC1 , system Glycogen synthase kinase-3 beta (Homo sapiens): what EC50 was measured?
-- reply > 300 µM

###

List of EC50 values.
- testedTarget: UniProt P49841
- experimentNotes: concentration-response blocking of human GSK3B – biochemical, luminescence, cell-free homogeneous, retest, dose response (AID 434954)

compound: COc1cccc2cc(C(=O)NCc3ccc(C)cc3)c(=N)oc12
result: > 300 µM

-- ask Suppose we examine the compound Cc1nnc2n(-c3ccccc3)c(=O)c3c4c(sc3n12)COC(C)(C)C4 ; what EC50 value has been reported?
-- reply > 300 µM

-- ask Suppose we examine the compound CC1=C(C(=O)Nc2ccccc2F)C(c2ccsc2)C2C(=O)CC(C)(C)CC2=N1 (stereo not given) ; what EC50 value has been reported?
-- reply > 300 µM

-- ask Suppose we examine the compound COc1ccc2nc(C)cc(N3CCN(c4ccccc4)CC3)c2c1 ; what EC50 value has been reported?
-- reply 29.5 µM

-- ask Suppose we examine the compound Cc1ccc(-c2nn(-c3ccccc3)cc2C=Nn2c(-c3ccncc3)n[nH]c2=S)cc1 ; what EC50 value has been reported?
-- reply > 300 µM

###

- testedTarget: Glycogen synthase kinase-3 beta (Homo sapiens)
- experimentNotes: concentration-response blocking of human GSK3B – biochemical, luminescence, cell-free homogeneous, retest, dose response (AID 434954)
List of EC50 values.

molecule: O=C1CC(O)(C(F)(F)F)Oc2c1ccc1ccccc21 (configuration not stated)
EC50: > 300 µM
//
molecule: Cc1ccnc(NC(=O)c2ccc([N+](=O)[O-])s2)c1
EC50: > 300 µM
//
molecule: COc1ccc(-c2nnc(NC(=O)C3=COCCO3)o2)cc1
EC50: > 300 µM
//
molecule: O=c1c(-c2ccccc2)c(-c2ccccc2)oc2cc(O)cc(O)c12
EC50: 24.6 µM
//
molecule: CSc1nc2ncc3c(n2n1)CC1c2ccccc2CCN1C3=O (configuration not stated)
EC50: 46.3 µM

-- ask Suppose we examine the molecule CCn1c(SCC(=O)Nc2cc(Cl)ccc2OC)nnc1C1CC1 ; what EC50 value has been reported?
-- reply > 300 µM

-- ask Suppose we examine the molecule C=CCN=C(NC#N)SCC(=O)c1cccc(OC)c1 ; what EC50 value has been reported?
-- reply 1.23 µM

-- ask Suppose we examine the molecule Cc1ccccc1-c1nc(CN2CCC(C(=O)N3CCN(c4ccccn4)CC3)CC2)c(C)o1 ; what EC50 value has been reported?
-- reply > 300 µM

-- ask Suppose we examine the molecule C[N+](C)=c1ccn(CC(=O)N2c3ccccc3Sc3ccccc32)cc1 ; what EC50 value has been reported?
-- reply > 300 µM

-- ask Suppose we examine the molecule O=C1CN(C(=O)c2ccco2)c2ccccc2N1 ; what EC50 value has been reported?
-- reply > 300 µM

-- ask Suppose we examine the molecule CCOC(=O)CSc1ccc2nnc(-c3ccncc3)n2n1 ; what EC50 value has been reported?
-- reply 1.9 µM

-- ask Suppose we examine the molecule O=C(NCCCN1CCCC1=O)c1ccc2c(c1)NC(=O)c1ccccc1S2 ; what EC50 value has been reported?
-- reply > 300 µM

-- ask Suppose we examine the molecule O=C(NCc1ccccc1)c1ccc2nccnc2c1 ; what EC50 value has been reported?
-- reply > 300 µM

###

- testedTarget: Glycogen synthase kinase-3 beta (Homo sapiens, UniProt P49841)
- Sequence (P49841 whole entry): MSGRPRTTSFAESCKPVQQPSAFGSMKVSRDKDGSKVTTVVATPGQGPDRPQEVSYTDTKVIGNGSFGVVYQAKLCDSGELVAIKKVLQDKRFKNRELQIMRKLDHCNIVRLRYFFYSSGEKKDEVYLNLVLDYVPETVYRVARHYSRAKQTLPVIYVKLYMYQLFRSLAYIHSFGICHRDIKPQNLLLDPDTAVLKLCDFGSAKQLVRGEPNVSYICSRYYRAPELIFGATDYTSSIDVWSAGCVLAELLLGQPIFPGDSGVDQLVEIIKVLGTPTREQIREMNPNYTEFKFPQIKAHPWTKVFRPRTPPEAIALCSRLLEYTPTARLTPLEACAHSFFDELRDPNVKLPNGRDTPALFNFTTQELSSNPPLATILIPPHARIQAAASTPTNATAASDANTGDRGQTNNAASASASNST
- experimentNotes: concentration-response blocking of human GSK3B – biochemical, luminescence, cell-free homogeneous, retest, dose response (AID 434954)
measure: EC50

molecule: O=[N+]([O-])c1ccccc1S(=O)(=O)N1CCc2ccccc2C1 [SMR000273931]
EC50: > 300 µM
--
molecule: COc1cccc(C2c3cc4c(cc3N=C3CC(C)(C)CC(=O)C32)OCO4)c1 (stereo unspecified) [MLS000522404]
EC50: > 300 µM
--
molecule: CC(C)Nc1nc(-c2cccnc2)nc(-c2ccccc2)c1C#N
EC50: > 300 µM

-- ask Suppose we examine the molecule COc1cc(C=C2SC(Nc3ccc(O)cc3)=NC2=O)cc(OC)c1OC [SMR000414809] ; what EC50 value has been reported?
-- reply > 300 µM

-- ask Suppose we examine the molecule Oc1ccc(CN=Nc2ccc(C(F)(F)F)cn2)cc1O ; what EC50 value has been reported?
-- reply 16.1 µM

-- ask Suppose we examine the molecule CCCc1cc(C(=O)Nc2cc(Br)ccc2O)no1 [MLS000116375] ; what EC50 value has been reported?
-- reply > 300 µM

-- ask Suppose we examine the molecule CCOC(=O)c1c(-c2ccccc2)oc2ccc(OCC(=O)NNC(=O)CCCC(=O)O)cc12 ; what EC50 value has been reported?
-- reply > 300 µM

###

List of EC50 values.
- testedTarget: UniProtKB P49841
- experimentNotes: concentration-response blocking of human GSK3B – biochemical, luminescence, cell-free homogeneous, retest, dose response (AID 434954)
Your answer is read as µM, so omit the unit and give the number.

compoundStructureString: Cn1ncnc2c(=O)n(C)c(=O)nc1-2
displayUnit: µM
numericResult: 62.7

Now look at this entry.
-- ask Suppose we examine the compound CSc1nc(NCc2ccccc2)c2c3c(sc2n1)CN(C)CC3 ; what EC50 value has been reported?
-- reply 23.3

###

List of EC50 values.
- testedTarget: Glycogen synthase kinase-3 beta (Homo sapiens, UniProt P49841)
- experimentNotes: concentration-response blocking of human GSK3B – biochemical, luminescence, cell-free homogeneous, retest, dose response (AID 434954)

Use these answered entries as a reference point.
compound: NS(=O)(=O)c1ccc(N/N=C2\C(=O)Nc3ccc(Br)cc32)cc1 [SMR000592222]
EC50: > 300 µM
//
compound: CC(C)=CCc1c(O)cc(O)c2c1O[C@H](c1ccc(O)cc1)CC2=O
EC50: > 300 µM
//
compound: O=c1[nH]c2ccccc2c(=O)n1-c1ccc(Cl)cc1Cl
EC50: > 300 µM
//
compound: Cc1ccc(-c2cc(C(=O)NCCc3ccccn3)c3ccccc3n2)c(C)c1 [SMR000264677]
EC50: > 300 µM
//
compound: Nc1nc(N)nc(-c2cc(Cl)ccc2Cl)n1 [SMR000471621]
EC50: > 300 µM
//
compound: Nc1nc(NCC2CCCO2)nc(Nc2ccc(Cl)cc2)c1[N+](=O)[O-] (stereo not given)
EC50: 2.29 µM

-- ask Suppose we examine the compound Cc1occc1C(=O)N1CCN(C(=O)C2CCCO2)CC1 (stereo not given) ; what EC50 value has been reported?
-- reply > 300 µM

-- ask Suppose we examine the compound CC(CC(=O)NCc1ccccc1)=NNC(=O)c1cnccn1 [MLS000701004] ; what EC50 value has been reported?
-- reply > 300 µM

-- ask Suppose we examine the compound CS(=O)(=O)Nc1cccc(-c2cn3c(n2)SCC3)c1 [MLS001167062] ; what EC50 value has been reported?
-- reply > 300 µM

-- ask Suppose we examine the compound COc1cc(CN=Nc2nc(Nc3ccccc3)nc(N3CCCCC3)n2)ccc1OCC(=O)O [SMR000312683] ; what EC50 value has been reported?
-- reply > 300 µM

The reported numbers originate from BindingDB's records for doi:10.7270/Q2TX3CTT.
